# system.tested: HCV RdRp NS5B d21BK (BK strain, 1b subtype) (Hepatitis C virus genotype 1b)
# Construct: NS5B from the BK strain (1b subtype) is expressed in E. coli as a protein in which the 21 C-terminal amino acids are replaced
# Sequence (P26663 2420-2997, looked up, natural form): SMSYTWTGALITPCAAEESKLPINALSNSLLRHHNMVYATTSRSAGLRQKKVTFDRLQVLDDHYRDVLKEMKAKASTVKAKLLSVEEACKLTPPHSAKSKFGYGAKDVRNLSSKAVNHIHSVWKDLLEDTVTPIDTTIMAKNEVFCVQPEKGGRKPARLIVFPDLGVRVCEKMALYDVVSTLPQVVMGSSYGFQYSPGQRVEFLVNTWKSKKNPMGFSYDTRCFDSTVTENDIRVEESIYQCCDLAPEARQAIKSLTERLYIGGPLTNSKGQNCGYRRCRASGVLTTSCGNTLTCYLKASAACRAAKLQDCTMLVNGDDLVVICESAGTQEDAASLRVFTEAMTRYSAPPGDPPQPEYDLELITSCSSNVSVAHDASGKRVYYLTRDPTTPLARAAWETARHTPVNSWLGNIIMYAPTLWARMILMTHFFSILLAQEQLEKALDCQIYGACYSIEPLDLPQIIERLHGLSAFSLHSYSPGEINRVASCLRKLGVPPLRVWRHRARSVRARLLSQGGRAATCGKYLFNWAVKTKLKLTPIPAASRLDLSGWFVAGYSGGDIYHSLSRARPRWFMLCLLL
# assay: HCV polymerase (NS5B) RNA-dependent RNA polymerase inhibition, 33P-GTP filter assay
# cond: in vitro; NS5B BK strain (1b subtype), 24 nM enzyme, 2 h at room temperature; read-out: HCV Polymerase Median IC50
Rule: IC50 below 5000 nM gives criterion met. Equal to or above 5000 nM gives criterion not met.

Before answering, review these 3 worked examples.
Request: Lab log: compare recorded IC50 with 5000 nM; is it strictly lower for O=C(O)[C@@H]1C[C@@H](O)CN1S(=O)(=O)c1cc(Cl)cc(Br)c1O ?
Response: criterion met

Request: Lab log: compare recorded IC50 with 5000 nM; is it strictly lower for O=C(O)[C@@H]1CCCN1S(=O)(=O)c1cc(Br)cc(Br)c1O ?
Response: criterion met

Request: Lab log: compare recorded IC50 with 5000 nM; is it strictly lower for Cc1ccc(S(=O)(=O)N2CCC[C@H]2C(=O)O)cc1Cl ?
Response: criterion not met

---
Request: Lab log: compare recorded IC50 with 5000 nM; is it strictly lower for O=C(O)[C@@H]1CSCN1S(=O)(=O)c1cc(Br)cc(Br)c1O ?
Response: criterion met

Request: Lab log: compare recorded IC50 with 5000 nM; is it strictly lower for O=C(O)[C@H]1CCCN1S(=O)(=O)c1cc(Cl)cc(Cl)c1O ?
Response: criterion not met

====

# system.tested: HCV RdRp NS5B d21BK (BK strain, 1b subtype) (Hepatitis C virus genotype 1b)
# Construct: NS5B from the BK strain (1b subtype) is expressed in E. coli as a protein in which the 21 C-terminal amino acids are replaced
# assay: HCV polymerase (NS5B) RNA-dependent RNA polymerase inhibition, 33P-GTP filter assay
# cond: in vitro; NS5B BK strain (1b subtype), 24 nM enzyme, 2 h at room temperature; read-out: HCV Polymerase Median IC50
measured.endpoint: log10(IC50) (log10 of the value in µM)
Base-10 log of IC50, unit µM.

Observe how each entry below is paired with its result.
Request: Look up log10(IC50) for this molecule: Cc1cc(N)c(S(=O)(=O)N2C[C@@H](O)C[C@@H]2C(=O)O)cc1Cl [Example 19]
Response: 0.61

Request: Look up log10(IC50) for this molecule: O=C(O)[C@@H]1C[C@@H](O)CN1S(=O)(=O)c1cc(Cl)cc(Cl)c1O [Example 10]
Response: -0.17

Request: Look up log10(IC50) for this molecule: O=S(=O)(c1cc(Cl)cc(Cl)c1O)N1CCC[C@H]1CO [Example 21]
Response: 0.79

Request: Look up log10(IC50) for this molecule: O=C(c1ccccc1)[C@@H]1CCCN1S(=O)(=O)c1cc(Cl)cc(Cl)c1O [Example 30]
Response: 0.88

Request: Look up log10(IC50) for this molecule: O=C(O)[C@H]1CSCN1S(=O)(=O)c1cc(Cl)cc(Br)c1O [Example 50]
Response: -0.06

--- query ---
Request: Look up log10(IC50) for this molecule: O=C(O)[C@@H]1CCCN1S(=O)(=O)c1cc(F)cc(Cl)c1O [Example 14]
Response: 0.31
